Parameter: growth inhibition. Scope: all listed entries.
- PROTOCOL SUMMARY: inhibition of 3D7 malaria parasite growth – strain 3D7 (AID 2306);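 also: 0% = DMSO wells and 100% = chloroquine plus artemisinin control wells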
- TEST CONDITIONS: P. falciparum 3D7 erythrocytic growth, LDH absorbance, 72 h; at 2 µM; hits give high values
Your answer should be a plain number; it is taken to be in %.

Worked examples follow.
>>> print(df.to_string())
                                   molecule  result_unit  recorded_result
0  CC1(C)N=C(N)N=C(N)N1OCCCCOc1ccc(Cl)cc1C1CCCCC1            %               93
1  CS(=O)(=O)N(c1ccccc1)c1cc(C(=O)N[C@@H](Cc2ccccc2)[C@H](O)CNC2CC2)cc(N2CCCC2=O)c1            %              100
2  O=C(Nc1cccc(-c2cccc(-c3nc4ccc(C(F)(F)F)cc4[nH]3)c2)c1)c1cnc[nH]1            %              101
3  COc1ccc(NC(=O)Nc2cccc(-c3ccncc3)c2)cc1N1CCN(C)CC1            %               98

[in] So what does the record say about growth inhibition for `CN1CCN(CCCN(Cc2cccc(-c3ccc(CNC4CCCC4)cc3)c2)C(=O)/C=C/c2ccccc2)CC1` ?
[out] 98

[in] So what does the record say about growth inhibition for `O=S(=O)(NCCN1CCCC1)c1ccc(-c2ccc(CNC3Cc4ccccc4C3)cc2)s1` ?
[out] 100

[in] So what does the record say about growth inhibition for COc1cc2nc(N3CC(C)N(C(=O)Cc4ccc(-c5ccccc5)cc4)C(C)C3)nc(N)c2cc1OC (configuration not stated) ?
[out] 100

[in] So what does the record say about growth inhibition for `O=S(=O)(c1ccccc1)n1ccc2cc(Nc3ncnc4cc(C#C[C@H]5CCCN5)sc34)ccc21` ?
[out] 85

[in] So what does the record say about growth inhibition for Cc1c(C(=O)N2CCCC(C(F)(F)F)C2)sc2cccc(F)c12 (configuration not stated) ?
[out] 99

[in] So what does the record say about growth inhibition for `CCOc1ccc(-c2cc3nc(C4CCNCC4)c(C(=O)Nc4ccc(C)cc4Cl)cn3n2)cc1` ?
[out] 95

[in] So what does the record say about growth inhibition for `COC(=O)c1cccc(CNCc2cccc(-c3ccc(-c4nc5c(C)cccc5[nH]4)s3)c2)c1` ?
[out] 103

[in] So what does the record say about growth inhibition for `CCS(=O)(=O)Nc1ccc2[nH]cc(C3CCN(CCC4CCN(C(=O)/C=C/c5ccc(Cl)c(Cl)c5)CC4)CC3)c2c1` ?
[out] 99
